This collection of values is drawn from patent EP4585618A1.

Consider the following binders and their measured absorbance at 450 nm readings.
molecular target: T1, His-tagged ILT3 protein extracellular domain: ILT3-His (human, UniProt Q8NHJ6 22-259); assay: ELISA, coated protein 1 µg/mL, antibody 10 µg/mL
T1 construct: The entry is the whole construct, with the His tag
Number first, unit second.

Example entries begin here.
humanized antibody huP2-G9 (antibody, human IgG1, kappa, L234A L235A, V domains shown, Full chains; also called P2-G9H1L2) VH: EVQLQESGPGLVKPSQTLSLTCTVSGSSITSGYYWNWIRQHPGKGLEWIGYLSYDGSNNYNPSLKNLVTISRDTSKNQFSLKLSSVTAADTAVYYCAREGAHYSGTLSWFAYWGQGTLVTVSS VL: DIQMTQSPSSLSASVGDRVTITCRASENIYSNLAWYQQKPGKSPKLLVYAATNLADGVPSRFSGSGSGTDYTLTISSLQPEDFATYYCQHFWDTPYTFGGGTKVEIKR :: 0.0564 absorbance at 450 nm
humanized antibody huP2-E3 (antibody, human IgG4 S228P, kappa, F234A L235A, V domains shown, Full chains; The constant region is hIgG1(LALA) or hIgG4(LALA) with a kappa CL; also called P2-E3H6L2) VH: EVQLVQSGAEVKKPGASVKVSCKASGYTFTDYYMNWVKQAPGQRLEWMGDINPNSGGTSYNQKFKGRVTITVDKSGSTAYMELSSLRSEDTAVYYCARGGVTTVVATYWYFDVWGQGTTVTVSS VL: DIQMTQSPSSLSASVGDRVTITCRASENIYSNLAWYQQKPGKSPKLLVYAATNVADGVPSRFSGSGSGTDYTLTISSLQPEDFATYYCQQFWDTPFTFGQGTKLEIKR :: 0.0699 absorbance at 450 nm
humanized antibody huP2-E8 (antibody, human IgG4 S228P, kappa, F234A L235A, V domains shown, Full chains; also called P2-E8H4L1) VH: EVQLVESGGGLVKPGGSLRLSCAASGFTFSDYGIHWVRQAPGKGLEWVAYISSGSSIHNYADTVKGRFTISRDNAKNSLYLQMNSLRAEDTAVYYCARGPNYYGSSYLLVYWGQGTLVTVSS VL: DIQMTQSPSSLSASVGDRVTITCKASQDVNIAVAWYQQKPGKAPKLLIYSASYRYTGVPSRFSGSGSGTDFTFTISSLQPEDIATYYCQQHYNIPWTFGGGTKVEIKR :: 0.063 absorbance at 450 nm

Could you now consider this next binder?
Problem: Endpoint output: absorbance at 450 nm of humanized antibody huP2-C6 (antibody, human IgG1, kappa, L234A L235A, V domains shown, Full chains; also called P2-C6H7L1) VH: EVQLVQSGAEVKKPGASVKVSCKASGYTFTDYYIHWVRQAPGQGLEWMGYIYPDTGYSGYNQKFKGRVTMTVDKSTSTAYMELRSLRSDDTAVYYCTRRGDYSGVHFDYWGQGTTVTVSS VL: DIVLTQSPDSLAVSLGERATINCRASESVNNYGVGFLHWYQQKPGQPPKLLIYRASTLESGIPDRFSGSGSGTDFTLTISSLQAEDVAVYYCQHSYKDPPWTFGGGTKVEIKR . Value?
Result: 0.149 absorbance at 450 nm
